# MEASURED_ON: human Retinoid X Receptor beta (RXRb), RXRB (gene 6257) (UniProt P28702)
# Sequence (P28702 whole entry, looked up): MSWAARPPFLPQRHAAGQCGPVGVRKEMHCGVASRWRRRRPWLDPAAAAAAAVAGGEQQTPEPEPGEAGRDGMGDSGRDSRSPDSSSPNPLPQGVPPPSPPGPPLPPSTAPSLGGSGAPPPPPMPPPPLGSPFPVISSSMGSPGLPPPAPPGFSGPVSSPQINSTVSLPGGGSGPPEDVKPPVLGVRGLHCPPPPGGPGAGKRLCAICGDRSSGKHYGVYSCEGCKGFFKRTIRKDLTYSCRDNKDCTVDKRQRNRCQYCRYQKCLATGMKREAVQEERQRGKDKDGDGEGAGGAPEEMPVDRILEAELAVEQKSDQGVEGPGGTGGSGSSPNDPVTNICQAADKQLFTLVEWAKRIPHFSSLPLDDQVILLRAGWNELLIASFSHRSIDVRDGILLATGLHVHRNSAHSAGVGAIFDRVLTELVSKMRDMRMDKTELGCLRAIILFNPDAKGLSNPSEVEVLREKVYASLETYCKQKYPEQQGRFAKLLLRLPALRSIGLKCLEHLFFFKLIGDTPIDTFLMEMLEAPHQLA
# PROCEDURE_SUMMARY: ATG_RXRb_TRANS: Attagene TRANS-FACTORIAL HepG2 Assay for human Retinoid X Receptor beta (RXRb) (AID 2283013)
Results filed as inconclusive are left out. Calls of active or inactive are those of the source. How the source made its calls: active means hit-call score of the fitted dose curve at least 0.9, where 1 is the maximum; inconclusive means response in the unintended direction; inactive means score below 0.9.
# output must be one of 1.0 for active, 0.0 for inactive

Worked examples follow.
SMILES_RECORD: Cc1ccc(S(=O)(=O)OCC(F)(F)C(F)(F)C(F)(F)C(F)(F)C(F)(F)C(F)F)cc1
CLASS_LABEL: 1.0

SMILES_RECORD: O=S(=O)(O)C(F)(F)C(F)(F)C(F)(F)C(F)(F)C(F)(F)C(F)(F)C(F)(F)F
CLASS_LABEL: 0.0

SMILES_RECORD: C=CC(=O)OCC(F)(F)C(F)(F)C(F)(F)C(F)(F)C(F)(F)C(F)(F)C(F)(F)F
CLASS_LABEL: 0.0

SMILES_RECORD: COC(=O)CCC(F)(F)C(F)(F)C(F)(F)C(F)(F)F
CLASS_LABEL: 0.0

Now turn to the next compound.
Q. Dear all, I need the recorded test outcome for `C1COCCN1` , thank you.
A. 0.0
